System: THP-1 cells
Experiment: Measurement of IL-1β production, hTRF protocol (second alternative procedure), THP-1 cells
Assay type: cell-based, human
Details: Homo sapiens, THP-1, IL-1β production, human; read-out: NLRP3 hILIB EC50
Parameter: EC50. Scope: all listed entries.
Give just the number in µM; leave the unit off.

Some molecules with recorded EC50:
INSERT INTO assay_data (molecule, result_unit, reported_measurement) VALUES
  ('CC(Cn1cc2c(N)nc3cc(-c4ccn[nH]4)ccc3c2n1)NC(=O)c1cc(F)ccn1 (centres unmarked)', 'µM', 0.42),
  ('CN(C)CCn1cc2c(n1)c(N)nc1cc(-c3cc[nH]n3)ccc12', 'µM', 2.08),
  ('CCN(CC)CCCc1nc2c(N)nc3cc(-c4ccn[nH]4)ccc3c2s1', 'µM', 0.66);

Task item: What value of EC50 has been reported for the following molecule? Nc1nc2cc(-c3cc[nH]n3)ccc2c2cn(CCC(=O)Nc3ccccc3)nc12
Reply: 1.39

Task item: Can you handle Cc1nc(C(=O)NCCn2cc3c(n2)c(N)nc2cc(-c4cc[nH]n4)ccc23)c(C)o1 next?
Reply: 0.37

Task item: Can you handle CCNC(=O)Cn1cc2c(n1)c(N)nc1cc(-n3cccn3)ccc12 next?
Reply: 3.88

Task item: Try this molecule too: Nc1nc2cc(-c3cc[nH]n3)ccc2c2c1cnn2CCO
Reply: 1.17

Task item: Repeat for the following molecule: Cn1cnc2c(C(=O)NCCn3cc4c(n3)c(N)nc3cc(-c5cc[nH]n5)ccc34)cccc21
Reply: 1.67
